Recorded values, source ChEMBL document CHEMBL2146416.

Test system UniProt:P80147, Ki listed for each of the compounds.
Sequence (P80147 whole entry): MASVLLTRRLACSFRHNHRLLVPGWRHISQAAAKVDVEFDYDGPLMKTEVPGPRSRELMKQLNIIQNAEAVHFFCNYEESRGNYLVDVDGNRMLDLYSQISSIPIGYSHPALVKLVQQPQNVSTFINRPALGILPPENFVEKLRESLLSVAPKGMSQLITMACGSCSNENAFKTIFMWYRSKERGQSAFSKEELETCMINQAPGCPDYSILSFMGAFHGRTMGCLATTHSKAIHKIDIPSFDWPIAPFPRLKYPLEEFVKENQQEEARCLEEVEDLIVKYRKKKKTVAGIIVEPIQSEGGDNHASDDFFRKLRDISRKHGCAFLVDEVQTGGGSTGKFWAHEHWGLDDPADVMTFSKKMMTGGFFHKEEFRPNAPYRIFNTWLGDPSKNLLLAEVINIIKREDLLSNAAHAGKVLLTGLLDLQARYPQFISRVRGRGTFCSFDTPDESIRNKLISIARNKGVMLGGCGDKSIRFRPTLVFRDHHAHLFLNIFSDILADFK
endpointLabel: Ki (µM)

{"smilesEntry": "NCc1cscc1C(=O)O", "readingUnit": "µM", "dataValue": 2860}
{"smilesEntry": "NCc1ccc(C(=O)O)[nH]1", "readingUnit": "µM", "dataValue": 2140}
{"smilesEntry": "NCc1cocc1C(=O)O", "readingUnit": "µM", "dataValue": 2270}
{"smilesEntry": "NCc1ccc(C(=O)O)s1", "readingUnit": "µM", "dataValue": 2490}
